- System: rat mesangial cells
- measurement-notes: Toxicity rank and cell condition observed in the proline incorporation assay
- Type: cell-based
- test-conditions: no concentration stated
Below, each entry is listed with its recorded Tox. Rank (4 = non-toxic).

structure	reported-value
COc1ccc(/C=C/C(=O)n2c(=O)n(C)c3ccccc32)cc1OC	1 to 2
C#CCOc1ccc(/C=C/c2nc3ccccc3c(=O)o2)cc1OC	4
COc1ccc(/C=C/C(=O)N2CC(=O)Nc3ccccc32)cc1OC	2

Exercise: Find Tox. Rank (4 = non-toxic) (rat mesangial cells) for the entry COc1cc2c(cc1OC)/C(=C/C(=O)Nc1ccccc1C(=O)O)CNC2=O
Solution: 4

Exercise: Find Tox. Rank (4 = non-toxic) (rat mesangial cells) for the entry O=c1oc(/C=C/c2ccc(OC(F)F)c(OC(F)F)c2)nc2ccccc12
Solution: 4

###

- Tested on: rat mesangial cells
- measurement-notes: Proline incorporation assay: reduction of TGF-beta 1 stimulated proline incorporation
- Type: cell-based
- test-conditions: Mesangial cell, 44 h, 10 μM compound, TGF-beta 1 5 ng/mL, read-out: Percentage Reduction of TGF-Beta 1 Stimulated Proline Incorporation
Below, each entry is listed with its recorded inhibition at 10 µM.

Below, each entry is followed by its recorded inhibition at 10 µM result.
molecule	inhibition at 10 µM
COc1cc2c(cc1OC)CC(C(=O)Nc1ccccc1C(=O)O)CC2 (stereo not drawn) [FT130]	~10%
COc1cc2c(cc1OC)CCC(C(=O)Nc1ccccc1C(=O)O)=C2 [FT129]	~10%

Could you now look at the following molecule, please?
Exercise: Any idea what inhibition at 10 µM was measured for COc1cc2c(cc1OC)/C(=C/C(=O)Nc1ccccc1C(=O)O)CNC2=O [FT131] ?
Solution: ~20%

Data origin, for the record: patent US9951087B2
